This section presents variants with their documented abundance fitness values.
B1: Homeobox expressed in ES cells 1, residues 110 to 165; numbered along this chain, Q9UBX0 (parent)
chain: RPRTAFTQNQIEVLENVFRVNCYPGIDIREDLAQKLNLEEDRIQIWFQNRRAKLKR

Variants of: B1
EXPERIMENTAL DETAILS: abundance fitness (aPCA) (normalised: wild type 0, dead -1); higher = more abundant; growth selection in yeast, the domain comes from the species named
MEASUREMENT SETUP: Homo sapiens
MEASURED METRIC: abundance fitness

INSERT INTO results (variant_label, reported) VALUES
  ('Y23F', -0.411),
  ('Y23R', -0.381),
  ('P2R', -0.031),
  ('I28M', -0.655),
  ('Q10V', -0.279),
  ('N16W', -0.755),
  ('N9R', -0.042),
  ('A33Q', 0.36),
  ('L14W', -0.625),
  ('E12F', 0.203),
  ('V13N', -0.278),
  ('V13Y', -0.757),
  ('G25H', 0.151),
  ('N21Y', -0.592),
  ('A33V', -0.363),
  ('E30A', -0.023),
  ('R1V', 0.134);
